target: ALDH2*1/*1 (Homo sapiens, UniProt P05091); construct: His-tag (N); made in house; host or cells: E. coli BL21 (pTrcHis vector); assay: ALDH2 enzymatic activity, NADH accumulation at 340 nm, acetaldehyde substrate, wild type; assay type: biochemical; settings: 10 μM compound; relative to baseline enzymatic activity (100%)
Measured activity at 10 µM accompanies every entry in the list below.

>  <structureAsSmiles>
COc1ccc(CNC(=O)c2cc(-c3ncccc3CO)ccc2OCC2CC2)cc1F

>  <activity at 10 µM / %>
293

$$$$
>  <structureAsSmiles>
COc1ccc(CNC(=O)c2cc(-c3c(CO)cccc3N(C)C)ccc2OCC2CC2)cc1F

>  <activity at 10 µM / %>
105

$$$$
>  <structureAsSmiles>
COc1ccc(CNC(=O)c2cc(-c3ccsc3CO)ccc2OCC2CC2)cc1F

>  <activity at 10 µM / %>
379

$$$$
